Target: human P1R (Homo sapiens, UniProt Q03431)
Construct: expressed in transfected cells; host or cells: HKRK-B28 (porcine kidney LLC-PK1, stably transfected)
Sequence (Q03431 27-593): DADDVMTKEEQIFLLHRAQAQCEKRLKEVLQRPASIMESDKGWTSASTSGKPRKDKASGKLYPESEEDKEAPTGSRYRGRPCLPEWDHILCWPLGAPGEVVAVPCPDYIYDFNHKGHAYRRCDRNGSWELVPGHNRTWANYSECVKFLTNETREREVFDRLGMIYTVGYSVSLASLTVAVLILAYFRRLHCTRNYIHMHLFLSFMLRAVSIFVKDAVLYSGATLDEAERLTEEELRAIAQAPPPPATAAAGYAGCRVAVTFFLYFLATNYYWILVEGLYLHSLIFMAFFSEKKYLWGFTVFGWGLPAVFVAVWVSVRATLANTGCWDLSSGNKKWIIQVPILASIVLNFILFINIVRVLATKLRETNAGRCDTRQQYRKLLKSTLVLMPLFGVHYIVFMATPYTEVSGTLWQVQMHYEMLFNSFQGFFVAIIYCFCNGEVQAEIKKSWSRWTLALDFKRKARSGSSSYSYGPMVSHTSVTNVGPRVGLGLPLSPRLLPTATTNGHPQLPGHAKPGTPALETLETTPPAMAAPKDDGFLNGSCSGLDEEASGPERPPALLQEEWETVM
Assay: Competition binding in HKRK-B28 cells
Settings: HKRK-B28 cells; tracer 125I-[M]PTH(1-21)amide, 4 h at 4° C.; N.B. = no binding detected at 10 μm peptide
Square brackets hold non-standard residues; d marks the D form. Peptide text beside a SMILES is read from it. hArg = N=C(N)NCCCC[C@H](N)C(=O)O; Aib = CC(C)(N)C(=O)O
measured-quantity: Binding IC50

molecule	assay-system	experimental-value
CC[C@H](C)[C@H](NC(=O)[C@H](CCC(=O)O)NC(=O)[C@H](C)NC(=O)[C@@H](NC(=O)[C@H](C)N)C(C)C)C(=O)N[C@@H](CCC(N)=O)C(=O)N[C@@H](CC(C)C)C(=O)N[C@@H](CCSC)C(=O)NC(C)(C)C(=O)N[C@@H](CCC(N)=O)C(=O)N[C@@H](CCCCNC(=N)N)C(=O)N[C@@H](C)C(=O)N[C@@H](CCCCN)C(=O)N[C@@H](Cc1c[nH]c2ccccc12)C(N)=O [Aib-9] (H-AVAEIQLM[Aib]Q[hArg]AKW-NH2)	human P1R (Homo sapiens, UniProt Q03431)	N.B.
CC[C@H](C)[C@H](NC(=O)[C@H](CCC(=O)O)NC(=O)[C@H](C)NC(=O)[C@@H](NC(=O)[C@H](C)N)C(C)C)C(=O)N[C@@H](CCC(N)=O)C(=O)N[C@@H](CC(C)C)C(=O)NC(C)(C)C(=O)N[C@@H](Cc1c[nH]cn1)C(=O)N[C@@H](CCC(N)=O)C(=O)N[C@@H](CCCCNC(=N)N)C(=O)N[C@@H](C)C(=O)N[C@@H](CCCCN)C(=O)N[C@@H](Cc1c[nH]c2ccccc12)C(N)=O [Aib-8] (H-AVAEIQL[Aib]HQ[hArg]AKW-NH2)	human P1R (Homo sapiens, UniProt Q03431)	N.B.
